selectivity ratio values, listed per item
EXPERIMENT NOTES: Selectivity index, ratio of IC50 for cytotoxicity against bovine MDBK cells to IC50 for Trypanocidal activity against Trypanosoma brucei gambiense
CONDITION LABEL: cattle
The answer should be written as a number, with no unit following it.

>>> df
                                test_smiles  recorded_number
0  CC(=O)Oc1ccccc1-c1cnc(-c2cccc(OC(C)=O)c2OC(C)=O)o1             0.82
1  CC(=O)Oc1ccc(OC(C)=O)c(-c2ncc(-c3ccccc3OC(C)=O)o2)c1              1.2
2       COc1ccccc1-c1cnc(-c2c(OC)cccc2OC)o1              1.5
3        COc1cccc(-c2ncc(-c3ccccc3C)o2)c1OC              1.4
4     COc1ccc(-c2cnc(-c3cccc(OC)c3OC)o2)cc1             0.31
5         COc1cccc(-c2ncc(-c3ccccc3)o2)c1OC             0.48
6   COc1cccc(-c2ncc(-c3ccc4ccccc4c3)o2)c1OC             0.83
7       COc1ccccc1-c1cnc(-c2cccc(OC)c2OC)s1              3.6

Value of measured selectivity ratio for the entry Oc1ccc(O)c(-c2ncc(-c3ccccc3O)o2)c1 : 0.96

Entry COc1ccc(-c2ncc(-c3ccccc3OC)o2)c(OC)c1 , selectivity ratio reported as 1.7

The reported selectivity ratio of the compound COc1cccc(-c2ncc(-c3ccc(OC)c(OC)c3OC)o2)c1OC was 1.6
